System: XIP peptide (Xip251-270) binding
Test: small-molecule binders of XIP peptide, primary screen, biochemical, small-molecule microarray, fluorescence 635/667 nm, 0.1 µg/mL protein (AID 1182)
Details: fluorescent protein binding, 635 nm, higher = more signal, called active from +8 up or from −8 down
Please use the following composite z-score ranges when assigning a class: lower band = under 0.08, central band = from 0.08 up to 0.6, upper band = 0.6 and over

Example entries begin here.
| COMPOUND | LABEL_CLASS |
| --- | --- |
| COCCOC(=O)N1C(=O)[C@@]2(c3cc(C#CC4(O)CCCCCC4)ccc31)[C@H](C(=O)NC[C@H](O)c1ccccc1)[C@H]1C(=O)O[C@H](c3ccccc3)[C@H](c3ccccc3)N1[C@@H]2c1ccc(O)cc1 | central band |
| COc1ccc(C#Cc2ccc3c(c2)[C@]2(C(=O)N3)[C@H](c3ccc(OCCO)cc3)N3[C@H](c4ccccc4)[C@H](c4ccccc4)OC(=O)[C@H]3[C@@H]2C(=O)O)cc1 | lower band |
| COC(=O)C(CC#Cc1ccc2c(c1)[C@]1(C(=O)N2)[C@H](c2ccc(O)cc2)N2[C@H](c3ccccc3)[C@H](c3ccccc3)OC(=O)[C@H]2[C@@H]1C(=O)N1CCc2cc(OC)c(OC)cc2C1)C(=O)OC | upper band |

Exercise: Class? Entry: NC(=O)NCC#Cc1ccc2c(c1)[C@]1(C(=O)N2)[C@H](C(=O)N2CCCCCCC2)[C@H]2C(=O)O[C@H](c3ccccc3)[C@H](c3ccccc3)N2[C@@H]1c1ccc(O)cc1
Solution: central band

Exercise: Class? Entry: C/C=C/CN(C(=O)C#Cc1ccccc1)[C@H](CO[Si](C)(C)C(C)(C)C)c1ccccc1
Solution: lower band

Exercise: Class? Entry: C=CCC(OC(C)=O)[C@@H]1[C@@H](N(Cc2cc3ccccc3o2)C(=O)c2cccc3ccccc23)c2cc(OCCCO)ccc2N1C(=O)c1ccc2ccccc2c1 (stereo partly drawn)
Solution: lower band

Exercise: Class? Entry: C=C(CCCC)C(=O)CC[C@H](OC(C)=O)c1ccccc1OCCO
Solution: central band

Exercise: Class? Entry: CN(C)CCCCNC(=O)[C@H]1C[C@H]2C(=O)NCC(=O)N2[C@H]1c1cccc(OCCO)c1
Solution: central band

Exercise: Class? Entry: C#CCN=C(N)N
Solution: central band

Exercise: Class? Entry: CN(C)CCCC[C@@H]1NC(=O)[C@@H]2C[C@H](C(=O)NCc3ccc(F)cc3)[C@H](c3ccc(O)cc3)N2C1=O
Solution: lower band

Exercise: Class? Entry: COc1ccc([Si](C)(C)[C@H]2[C@H](CCO)O[C@@]3(C(=O)N(Cc4ccccc4)c4ccc(N(C=O)c5ccccc5)cc43)[C@@H]2C)cc1
Solution: central band

Exercise: Class? Entry: NCCCC[C@@H]1NC(=O)[C@H]2C[C@@H](C(=O)O)[C@@H](c3cccc(OCCO)c3)N2C1=O
Solution: central band

Exercise: Class? Entry: C=CCNC(=O)[C@@H]1[C@H]2C(=O)O[C@H](c3ccccc3)[C@H](c3ccccc3)N2[C@H](c2ccccc2OCCO)[C@@]12C(=O)N(C(=O)OCCOC)c1ccc(C#CCCO)cc12
Solution: central band

Exercise: Class? Entry: CN(C)CCCCNC(=O)[C@H]1C[C@H]2C(=O)N[C@@H](Cc3ccccc3)C(=O)N2[C@H]1c1cccc(OCCO)c1
Solution: lower band

Exercise: Class? Entry: C=CCC(OC(C)=O)[C@@H]1[C@@H](N(Cc2cccc3ccccc23)C(=O)c2ccc(C)cc2)c2cc(OCCCO)ccc2N1C(=O)c1ccc2ccccc2n1 (stereo partly drawn)
Solution: upper band

Exercise: Class? Entry: C=CCNC(=O)[C@H]1[C@@H]2C(=O)O[C@@H](c3ccccc3)[C@@H](c3ccccc3)N2[C@@H](c2ccccc2OCCO)[C@]12C(=O)N(C(=O)OCCOC)c1ccccc12
Solution: central band
